assay: Cell Viability - N2a (AID 540); conditions: N2a mouse neuroblastoma cell viability; at 92.2 µM (top of the series);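 further: cells exposed to compound for 40 h at 37 °C; plate controls were DMSO alone for no effect and tamoxifen control for full effect; nearly all actives have a fitted effect of over 45% in size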
Inconclusive results are not listed.
Response field label takes Yes when activity change, negative = cytotoxicity is strictly below -10% and No in all other cases.

Use these answered entries as a reference point.
- CC(C)=O: No
- CC1=C(/C=C/C(C)=C/C=C/C(C)=C/CO)C(C)(C)CCC1: Yes
- CCCCCCCC/C=C\CCCCCCCC(=O)O: No
- CCOc1ccc2c(c1)C(C)=CC(C)(C)N2: No
- IC(I)I: Yes
- CCOC(C)=O: No

Now consider the entry below.
Is activity change, negative = cytotoxicity of "CC1=C2[C@@H]([C@H](C)CC[C@H]2/C=C(\C)C(=O)O)[C@H](O)C1" strictly below -10%?
No

---

assay: qHTS drug screen for cell cycle checkpoint inhibitors in PARPi-resistant BRCA-mutant ovarian cancer cell lines. (AID 1963452); details: PEO1/OlaR viability, CellTiter-Glo luminescence, 96 h; measured here: PEO1 parental Z-AUC; stronger effect = lower value
Response field label takes 1 when Z-AUC is strictly below -0.1 and 0 in all other cases.

Use these answered entries as a reference point.
* CNC(=O)c1ccc(Nc2ncc(C(F)(F)F)c(NCc3nccnc3N(C)S(C)(=O)=O)n2)cc1 | 0
* C[C@@H]1CCN(C(=O)CC#N)C[C@@H]1N(C)c1ncnc2[nH]ccc12 | 0

Is Z-AUC of "CCOC(=O)[C@H]1O[C@@H]1C(=O)N[C@@H](CC(C)C)C(=O)NCCC(C)C" strictly below -0.1?
0

---

test system: Hek293T; assay: Primary qHTS to identify gynecologic anti-cancer compounds using libraries of approved drugs and bioactive compounds (AID 1345084); conditions: Gynecologic cancer cell panel viability, ATPlite luminescence, 48 h, control line for the selectivity index; series mostly up to 57.5 µM; further: nearly all actives have a fitted effect of over 55% in size; further: potency means the concentration at half of the fitted maximal effect
Inconclusive results are not listed. Activity calls are given as the source filed them. Calls follow the shape of the dose curve; as a rule, active = well fitted cell-killing curve with a large enough effect; inconclusive = small, poorly fitted or top-dose-only effect, or effect the other way; inactive = flat fitted curve, though single readings scatter.
Measured attribute: Potency

Please review the entries below; each comes with its answer.
• CC(=O)c1cnc2ccc(-c3cc(Cl)c(O)c(Cl)c3)nc2c1NC1CCC(CN(C)C)CC1 (centres undefined) = 0.562 µM (active)
• CNC(=O)c1ccc(Nc2ncc(C(F)(F)F)c(NCc3nccnc3N(C)S(C)(=O)=O)n2)cc1 = 8.91 µM (active)

Fill in Potency for each of the 2 molecules listed.
1. COc1cc(N2CCC(N(C)C)CC2)ccc1Nc1ncc(Cl)c(Nc2ccccc2P(C)(C)=O)n1
2. NS(=O)(=O)OC[C@@H]1C[C@@H](n2ccc3c(N[C@H]4CCc5ccccc54)ncnc32)C[C@@H]1O

10 µM (active)
2.51 µM (active)

---

test system: Tov112D; assay: Primary qHTS to identify gynecologic anti-cancer compounds using libraries of approved drugs and bioactive compounds (AID 1345084); conditions: Gynecologic cancer cell panel viability, ATPlite luminescence, 48 h; series mostly up to 57.5 µM; further: nearly all actives have a fitted effect of over 55% in size; on activity change, negative = cytotoxicity: on the % scale 0 is the no-effect control and ±100 the full control effect
Records with an inconclusive call do not appear. Active and inactive are the calls of the source. Calls come from the whole dose curve; as a rule, active = well fitted cell-killing curve with a large enough effect; inconclusive = small, poorly fitted or top-dose-only effect, or effect the other way; inactive = flat fitted curve, though single readings scatter.
Measured attribute: activity change, negative = cytotoxicity

Please review the entries below; each comes with its answer.
• CC1(C)C[C@H]2C3=CCC4[C@@]5(C)CC[C@H](O[C@H]6O[C@H](C(=O)O)[C@@H](O)[C@H](O)[C@H]6O[C@H]6O[C@H](CO)[C@@H](O)[C@H](O)[C@H]6O[C@@H]6O[C@H](CO)[C@@H](O)[C@H](O)[C@H]6O)[C@](C)(CO)C5CC[C@@]4(C)[C@]3(C)CC[C@@]2(C)[C@H](O[C@@H]2OC[C@H](O)[C@H](OC3O[C@H](CO)[C@@H](O)[C@H](O)[C@H]3O)[C@H]2O)[C@@H]1O (stereo not given in full) = -3.08% [at 6.55 µM] (inactive)
• COc1cc(/C=C/C(=O)OC2CC(C)=C(C(=O)O)/C2=C/CO[C@@H]2O[C@H](CO)[C@@H](O)[C@H](O)[C@H]2O)ccc1O (stereo not given in full) = inactive
• O=C(c1ccccn1)c1cnn2c(-c3ccncc3)ccnc12 = inactive
• CCC[C@@H]1C[C@@H](C(=O)N[C@@H]([C@H]2O[C@H](SC)[C@H](O)[C@@H](O)[C@@H]2O)[C@@H](C)O)N(C)C1 = inactive

Fill in activity change, negative = cytotoxicity for each of the 6 molecules listed.
1. CC1(C(=O)O)CCCC2(C)C1CCC13CC(CCC21)C1(CO)OC31 (stereo not given)
2. CC1CCC2(C(=O)OC3OC(COC4OC(CO)C(O)C(O)C4O)C(O)C(O)C3O)CCC3(C)C(=CCC4C5(C)CCC(O)C(C)(C(=O)O)C5CCC43C)C2C1(C)O (stereo not given)
3. CC1=CC[C@]2(C(=O)O[C@@H]3O[C@H](CO[C@@H]4O[C@H](CO)[C@@H](O[C@@H]5O[C@@H](C)[C@H](O)[C@@H](O)[C@H]5O)[C@H](O)[C@H]4O)[C@@H](O)[C@H](O)[C@H]3O)CC[C@]3(C)C(CCC4[C@@]5(C)C[C@@H](O)[C@H](O)[C@@](C)(CO)C5CC[C@]43C)C2C1C (stereo not given in full)
4. C=C1CCC2C(C)(CO[C@@H]3O[C@H](CO)[C@@H](O)[C@H](O)[C@H]3O)C(O)CCC2(C)C1C(=O)CC1=CCOC1=O (stereo not given in full)
5. COC1CC(OC2CCC3(C)C(=CCC4C3CCC3(C)C(C(C)O)CCC43O)C2)OC(C)C1OC1OC(C)C(OC2OC(COC3OC(COC4OC(CO)C(O)C(O)C4O)C(O)C(O)C3O)C(O)C(O)C2O)C(OC)C1O (stereo not given)
6. CC(=O)O[C@@H]1[C@@H](OC(=O)/C=C/c2ccccc2)[C@H](C)O[C@@H](O[C@H]2[C@@H]3C=CO[C@@H](O[C@@H]4O[C@H](CO)[C@@H](O)[C@H](O)[C@H]4O)[C@@H]3[C@@]3(CO)O[C@@H]23)[C@@H]1OC(C)=O

1. inactive
2. -8.14% [at 11.6 µM] (inactive)
3. -1.58% [at 11.6 µM] (inactive)
4. inactive
5. -0.956% [at 11.6 µM] (inactive)
6. inactive
